- Test system: MALME-3M melanoma
- Run description: NCI-60 one-dose screen, 48 h
- Assay conditions: 10 µM
This is part of a sample that, as a whole, favours compounds with a hit. Of some 83,000 tested, about 20% had one in any assay. Activity calls are given as the source filed them. How the source made its calls: active means growth percent below 10; inactive means the rest.
Labels: 1.0 = active, 0.0 = inactive

INSERT INTO assay_data (compound, label_class) VALUES
  ('COc1ccccc1-n1c(-c2csc(NC(C)=O)n2)n[nH]c1=S', 0.0),
  ('O=C(Nc1ccc(NS(=O)(=O)c2ccc(F)cc2)cc1)C12CC3CC(CC(C3)C1)C2', 0.0),
  ('COc1ccc(/C=C2\CCCC3=C2N=C2SC(C)=CN2C3c2ccc(OC)cc2)cc1 (stereo not given)', 0.0),
  ('COc1cc2c3c(n(C4CCN(C)CC4)c(=O)c2cc1OC)-c1cc2c(cc1C3=O)OCO2', 0.0),
  ('CCCCc1oc2ccccc2c1C(=O)c1cc(I)c(OCCN(CC)CC)c(I)c1', 1.0),
  ('Cc1ccc(NCCN(C)CC(C)O)c2c(=O)c3ccc(Cl)cc3sc12 (stereo not given)', 1.0),
  ('COc1ccc(-c2cc(-c3ccccc3)nc(SCCCCCCC(=O)NO)n2)cc1', 0.0),
  ('COc1cc2cc(Oc3ccc(NC(=O)c4ccc(Cl)c(C(F)(F)F)c4)cc3)c(C)nc2cc1OC', 0.0),
  ('CCOC(=O)c1cc(C(=O)c2cc(OC)c(OC)c(OC)c2)n2ncc3ccccc3c12', 0.0),
  ('O=C(CC(CC(=O)c1ccccc1)c1ccccc1O)c1ccccc1', 0.0);

====

- Test system: HCT-15 colon
- Run description: NCI-60 one-dose screen, 48 h
- Assay conditions: 10 µM
This is part of a sample that, as a whole, favours compounds with a hit. Of some 83,000 tested, about 20% had one in any assay. The source made the active and inactive calls. The calls were made as follows: active = growth percent below 10; inactive = the rest.
Outcomes: yes (1) for active, no (0) for inactive

INSERT INTO assay_data (molecule, label_class) VALUES
  ('CC(C)(C)c1ccc(S(=O)(=O)N[C@H]2CC[C@H]3[C@@H]4CCc5cc(O)c([N+](=O)[O-])cc5[C@H]4CC[C@]23C)cc1', 'no (0)'),
  ('COC(=O)CC[C@@H](C)[C@H]1CC[C@H]2[C@@H]3CC[C@@H]4C[C@H](O)CC[C@]4(C)[C@H]3C[C@H](O)[C@]12C', 'no (0)'),
  ('c1cncc(-c2csc(-c3c[nH]c4ccccc34)n2)c1', 'no (0)'),
  ('Cc1c(Cl)cccc1NC(=O)CCCl', 'no (0)'),
  ('COC(=O)C1(O)NC(=C(C#N)C#N)C(C#N)=C1C(=O)c1ccc(OC)c(OC)c1 (centres undefined)', 'no (0)'),
  ('O=C(N/N=C/c1c(Cl)cccc1Cl)c1ccccc1Nc1cccc(C(F)(F)F)c1', 'no (0)'),
  ('C/C=C/C1=CN2C(=O)c3cc(OC4OC(C)C(NC)C(C)(O)C4O)c(C)c(O)c3N=C[C@@H]2C1 (some centres undefined)', 'yes (1)'),
  ('CC[C@@H](C(=O)[C@H](C)[C@H](O)[C@@H](C)[C@H]1O[C@H]([C@@H](CC)C(=O)O)CC[C@H]1C)C1O[C@]2(C=C[C@@H](O)[C@]3(CC[C@@](C)([C@H]4CC[C@](O)(CC)[C@H](C)O4)O3)O2)[C@H](C)C[C@@H]1C (some centres undefined)', 'no (0)'),
  ('O=C(CCCSc1nc(-c2ccc(Cl)cc2)cc(-c2ccc(Cl)cc2)n1)NO', 'no (0)'),
  ('c1ccc(CSc2ncccc2-c2nnc(SCCN3CCOCC3)o2)cc1', 'no (0)'),
  ('O=C(N/N=C/c1ccc(Cl)cc1)c1ccccc1Nc1cccc(C(F)(F)F)c1', 'no (0)'),
  ('Nc1ncc(-c2cnn(C3CCNCC3)c2)cc1-c1nc2ccccc2o1', 'no (0)'),
  ('Cc1ccc(C2NC(=S)N3C(c4ccc(C)cc4)NC(=S)N23)cc1 (centres undefined)', 'no (0)'),
  ('Nc1nc(Cn2c(-c3nonc3N)nc3ccccc32)nc(N2CCCCC2)n1', 'no (0)'),
  ('Nc1ccn(Cc2nnc(CCC(=O)c3nc4ccccc4[nH]3)o2)c(=O)n1', 'no (0)'),
  ('Clc1ccc(C2=NN=C3C(Cc4ccccc4)=Nc4ccccc4N3C2)cc1', 'no (0)'),
  ('CCn1c(SC/C(=N/O)c2ccccc2)nnc1-c1ccccc1', 'no (0)'),
  ('Nc1cc(-c2ccncc2)c[nH]c1=O', 'no (0)'),
  ('O=C1/C(=C/c2ccc([N+](=O)[O-])s2)Oc2cc(Cl)ccc21', 'yes (1)');
